# System: T-47D breast
# runDescription: NCI tumour cell line growth inhibition, 48 h
TGI values, listed per item

Look over these answered cases.
O=C(CSc1ccc(Cl)cc1)Nc1ccc(-c2nc3ccccc3s2)c(Cl)c1    8.63 µM
O=C(/C=C/c1ccncc1)c1cc(Cl)ccc1O    53.1 µM
COc1cccc2c1OC1(C=C2)Oc2ccccc2C(=O)N1C (configuration not stated)    99 µM

### Prompt Give a short answer stating reported TGI for CC1=NN(c2cccc(Cl)c2)C2(C1=C/C=C/c1ccccc1)C(Cl)C(=O)N2c1nc2ccccc2s1 (configuration not stated) .
### Response > 100 µM

----------
# Test system: UACC-257 melanoma
# runDescription: NCI tumour cell line growth inhibition, 48 h
GI50 values, listed per item

Look over these answered cases.
Nc1ncnc2n[nH]c(Nc3ccc(F)cc3)c12    67.7 µM
COc1ccc(-c2nnc(COc3ccc(C(=O)/C=C/c4ccco4)cc3)o2)cc1    2.94 µM
CC[C@H](Nc1ncnc2nc[nH]c12)c1oc2ccccc2c(=O)c1-c1cccc(F)c1    25.7 µM
C[C@@H]1CCC2[C@@H](C)[C@@H](OCC(CO[C@H]3OC4O[C@@]5(C)CC[C@H]6[C@H](C)CCC([C@H]3C)[C@@]46OO5)OC(=O)CCC(=O)O)OC3O[C@@]4(C)CC[C@@H]1[C@]32OO4 (stereo not given in full)    0.708 µM
Cc1cccc(NC(=O)Cn2cnc3sc(C(=O)OC(C)C)c(C)c3c2=O)c1    19 µM
COc1cc2c3c(n(C)c(=O)c2cc1OC)-c1cc2c(cc1/C3=C\CCCN)OCO2    30.5 µM

Now for the compound whose GI50 we want.
### Prompt Give a short answer stating reported GI50 for COc1cccc(-c2nc(-c3ccc(NC(=O)C(C)C)cc3)[nH]c2-c2ccnc(Br)c2)c1 .
### Response 4.02 µM

----------
# System: SK-MEL-2 melanoma
# runDescription: NCI tumour cell line growth inhibition, 48 h
attributeMeasured: TGI (µM)
// note: answer is a bare numeric in µM

CC(C)(C)OC(=O)N[C@H]1CC2(C=C(Cl)C(=O)C(Cl)=C2)OC1=O    41.7
OCCc1ccsc1-c1sc(-c2cc(CCO)c(-c3sccc3CCO)s2)cc1CCO    29.5

### Prompt Give a short answer stating reported TGI for O=C(Nc1ccc(Cl)cc1)c1cccc(NC2=C(Cl)C(=O)N(Cc3ccccc3)C2=O)c1 .
### Response 41.5

----------
TGI values, listed per item
# Tested on: UACC-257 melanoma
# runDescription: NCI tumour cell line growth inhibition, 48 h

Look over these answered cases.
O=c1cc(-c2ccccc2)oc2cc(OCCCOc3ccc4c(=O)cc(-c5ccccc5)oc4c3)ccc12    > 100 µM
COC(=O)C1CCC(=O)N1C(c1ccc(OC)cc1)c1ccc2c(c1)OCO2 (configuration not stated)    > 100 µM
CC(=O)/C(=C\c1cccc([N+](=O)[O-])c1)C(=O)Nc1ccccc1C    > 100 µM
CC(=O)Nc1nc(C#N)[nH]c1C#N    > 100 µM
Cc1ccc(NC(=O)c2cc3cc(N=Nc4ccccc4C(=O)O)ccc3oc2=O)cc1    59.4 µM
COc1cc(NCc2ccc3oc(=O)c(-c4ccccc4)nc3c2)cc(OC)c1OC    > 10 µM
O=[N+]([O-])C(/C=C(\Cl)n1nnc2ccccc21)=C(/Cl)n1nnc2ccccc21    > 100 µM
COc1ccc(S(=O)(=O)NNS(C)(=O)=O)cc1    > 100 µM
Cc1cc(N(CCOS(C)(=O)=O)CCOS(C)(=O)=O)ccc1C=O    48 µM
C=C1NC(=O)C(C(C)CC)NC(=O)C2CSCC(NC(=O)CCC(=O)O)C(=O)NC(Cc3ccccc3)C(=O)NC(C)C(=O)NC(CC(C)CC)C(=O)NC(C(=O)NC(Cc3ccccc3)C(=O)N3CCCC3C(=O)N2)C(C)OC(=O)C(CO)NC(=O)C(C(O)COC)N(C)C(=O)C(C(C)C)NC(=O)C(CC(C)CC)NC1=O (configuration not stated)    > 6 µM

Now for the compound whose TGI we want.
### Prompt Give a short answer stating reported TGI for CN(C)c1nc(=Nc2ccc(N=c3nc(N(C)C)ss3)cc2)ss1 .
### Response > 91.4 µM

----------
# Tested on: U251 CNS
The categories you may choose from are active, inactive

Record excerpt, results attached:
COc1ncnc(NS(=O)(=O)c2ccc(N=C3C(=O)N(CN4CCN(c5c(F)cc6c(=O)c(C(=O)O)cn(C7CC7)c6c5OC)CC4C)c4ccc(Cl)cc43)cc2)c1OC (centres undefined)    inactive
Cc1cc(/C=C/c2ccc3cc(N(C)C)ccc3[n+]2C)c(C)n1-c1ccccc1    active
O=C(Nc1ccc(Cl)cc1)c1cccc(NC2=C(Cl)C(=O)N(Cc3ccccc3)C2=O)c1    inactive
O=c1c2sccc2n(CC2COc3ccccc3O2)c(=O)n1O (centres undefined)    inactive
COc1ccc(/C=C(/C#N)n2nnc3cccc(F)c32)cc1    inactive
O=C(CSc1ccc(Cl)cc1)Nc1ccc(-c2nc3ccccc3s2)c(Cl)c1    inactive
COc1cc2c3c(n(C)c(=O)c2cc1OC)-c1cc2c(cc1/C3=C\CCCN)OCO2    inactive
CCCCCCCC(=O)SCC/C=C/[C@@H]1CC(=O)NCc2cc(ccn2)C2=N[C@@](C)(CS2)C(=O)N[C@@H](C(C)C)C(=O)O1    active

In the following, a different molecule is considered.
### Prompt Per the assay record, what outcome was assigned to Cc1cc(I)cc(CN(C)CCCN2CCCCC2)c1O ?
### Response inactive

----------
# System: MOLT-4 leukemia
# runDescription: NCI tumour cell line growth inhibition, 48 h; in the data active = GI50 below about 0.43 µM; inactive = the rest
The categories you may choose from are 1 = active, 0 = inactive

COc1cc2c3c(n(C)c(=O)c2cc1OC)-c1cc2c(cc1/C3=C\CCCN)OCO2    1

### Prompt Per the assay record, what outcome was assigned to Cc1cccc(NC(=O)Cn2cnc3sc(C(=O)OC(C)C)c(C)c3c2=O)c1 ?
### Response 0

### Prompt Per the assay record, what outcome was assigned to CO[C@H]1/C=C(/C)CCC[C@H](C)[C@H](O)[C@@H](C)C(=O)C(C)(C)[C@@H](O)CC(=O)O[C@@H]1/C(C)=C/c1csc(C)n1 ?
### Response 1

### Prompt Per the assay record, what outcome was assigned to [Cl-].[La+3].[O-]/N=C(\c1ccccc1)c1ccccn1.[O-]/N=C(\c1ccccc1)c1ccccn1.[O-]/N=C(\c1ccccc1)c1ccccn1 ?
### Response 0

----------
# Test system: HOP-62 NSCLC
# runDescription: NCI tumour cell line growth inhibition, 48 h
TGI values, listed per item

Look over these answered cases.
O=C(/C=C/c1ccc2c(c1)OCO2)CC(=O)C(=O)c1c[nH]c2ccccc12    > 100 µM
c1c[nH]c(-c2ccc(-c3ccc[nH]3)c3nsnc23)c1    > 80.1 µM
COc1ccc(S(=O)(=O)NNS(C)(=O)=O)cc1    > 100 µM
COP(=O)(/C=C/c1cc(C(=O)OCc2ccccc2)n(S(=O)(=O)c2ccccc2)c1)OC    > 100 µM
CN(C)c1nc(=Nc2ccc(N=c3nc(N(C)C)ss3)cc2)ss1    > 100 µM

### Prompt Give a short answer stating reported TGI for C=C1NC(=O)C(C(C)CC)NC(=O)C2CSCC(NC(=O)CCC(=O)O)C(=O)NC(Cc3ccccc3)C(=O)NC(C)C(=O)NC(CC(C)CC)C(=O)NC(C(=O)NC(Cc3ccccc3)C(=O)N3CCCC3C(=O)N2)C(C)OC(=O)C(CO)NC(=O)C(C(O)COC)N(C)C(=O)C(C(C)C)NC(=O)C(CC(C)CC)NC1=O (centres undefined) .
### Response > 6 µM

### Prompt Give a short answer stating reported TGI for CSc1nc(NC2OCC(OC(C)=O)C(OC(C)=O)C2OC(C)=O)c(N=CC=Nc2c(NC3OCC(OC(C)=O)C(OC(C)=O)C3OC(C)=O)nc(SC)[nH]c2=O)c(=O)[nH]1 (centres undefined) .
### Response > 92.6 µM

### Prompt Give a short answer stating reported TGI for N#CC(C#N)=CNC(N)=S .
### Response > 100 µM

### Prompt Give a short answer stating reported TGI for COc1ccc(C2=N/C(=C\c3ccccc3)C(=O)O2)cc1 .
### Response > 100 µM

### Prompt Give a short answer stating reported TGI for CCCCCCOc1ccc(C(=O)NOC)cc1 .
### Response > 100 µM

----------
# System: NCI-H460 lung
The categories you may choose from are label 1 for active, label 0 for inactive

Record excerpt, results attached:
ClCc1cccc(Cn2cnc3ncnc(Cl)c32)c1    label 0
O=C(CCc1nnc2sc(-c3ccc(Cl)cc3Cl)nn12)c1nc2ncccc2[nH]1    label 0
Cc1c2c(nn1-c1ccc(S(=O)(=O)/N=C3\SCCC(=O)N3c3ccccc3)cc1)-c1ccccc1CC2    label 0
O=c1c2sccc2n(CC2COc3ccccc3O2)c(=O)n1O (configuration not stated)    label 0
COc1ccc(-c2nnc(COc3ccc(NC(=O)Nc4cc(C(F)(F)F)cc(C(F)(F)F)c4)cc3F)o2)cc1    label 0
OC(c1cc(-c2ccc(C(F)(F)F)cc2)nc(-c2ccc(C(F)(F)F)cc2)c1)C1CCCCN1 (configuration not stated)    label 0
COc1ccc(-c2nnc(COc3ccc(C(=O)/C=C/c4ccco4)cc3)o2)cc1    label 0
O=C1OC(O)[C@@H]2[C@H]1[C@H]1CC[C@@H]2O1 (some centres not stated)    label 0
Cc1cc(-c2ccc3nc(C4CCOCC4)n(CCOC(F)(F)F)c3c2)cn(C)c1=O    label 0
OCC#Cc1ccccc1C#Cc1ccccc1    label 0

### Prompt Per the assay record, what outcome was assigned to O=C(CSc1ccc(Cl)cc1)Nc1ccc(-c2nc3ccccc3s2)c(Cl)c1 ?
### Response label 0

### Prompt Per the assay record, what outcome was assigned to COc1cc2c3c(n(C)c(=O)c2cc1OC)-c1cc2c(cc1/C3=C\CCN)OCO2 ?
### Response label 1
